Target: human neutrophil gelatinase B (Homo sapiens)
Construct: human neutrophil gelatinase B
Sequence (P14780 94-707): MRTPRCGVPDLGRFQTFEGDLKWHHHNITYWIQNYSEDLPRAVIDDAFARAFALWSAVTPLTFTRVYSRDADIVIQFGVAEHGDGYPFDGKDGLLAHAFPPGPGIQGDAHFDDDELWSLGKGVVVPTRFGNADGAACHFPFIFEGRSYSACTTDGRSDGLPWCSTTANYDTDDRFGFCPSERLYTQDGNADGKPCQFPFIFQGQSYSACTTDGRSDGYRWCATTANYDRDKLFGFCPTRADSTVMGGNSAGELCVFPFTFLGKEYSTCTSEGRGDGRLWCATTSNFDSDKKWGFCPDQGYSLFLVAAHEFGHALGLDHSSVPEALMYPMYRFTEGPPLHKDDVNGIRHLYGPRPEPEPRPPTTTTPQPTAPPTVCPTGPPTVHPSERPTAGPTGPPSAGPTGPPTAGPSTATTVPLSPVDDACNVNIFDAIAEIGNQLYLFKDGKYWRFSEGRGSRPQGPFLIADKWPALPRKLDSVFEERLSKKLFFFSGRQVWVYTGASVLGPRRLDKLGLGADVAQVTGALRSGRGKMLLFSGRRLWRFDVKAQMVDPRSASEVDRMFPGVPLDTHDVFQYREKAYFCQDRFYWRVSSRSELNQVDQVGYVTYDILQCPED
Experiment: Gelatinase inhibition in vitro (thiopeptide substrate, DTNB)
Each record here notes measured pIC50.
# log scale: pIC50 equals minus log10 of the concentration in mol/L

- structure.notation: "CNC(=O)[C@@H](NC(=O)[C@H](CC(C)C)C[C@H](O)CS)C(C)(C)C"
  pIC50: 7.72

## Input Please state recorded pIC50 (tested on human neutrophil gelatinase B (Homo sapiens)) of `CNC(=O)[C@@H](NC(=O)[C@H](CC(C)C)C[C@@H](O)CS)C(C)(C)C`
## Output 6.97

---

Each record here notes measured in vivo % gelatinase inhibition.
Target: gelatinase (Homo sapiens)
Sequence (P14780 94-707): as above
Assay: In vivo MMP inhibition (enzyme in implanted dialysis tubing)
Design: species or system rat (Sprague-Dawley) or mouse (CD-1)
Conditions: 50mpk (milligrams/kilogram)

Reference set, count: 2
- structure.notation: "CNC(=O)[C@@H](NC(=O)[C@H](CC(C)C)C[C@@H](O)CS)C(C)(C)C"
  test.value: "20.4/50 mpk %"
- structure.notation: "CCCCCCC[C@H](C[C@H](O)CS)C(=O)N[C@H](C(=O)NC)C(C)(C)C"
  test.value: "22.2/50mpk %"

## Input Please state recorded in vivo % gelatinase inhibition (tested on gelatinase (Homo sapiens)) of `CNC(=O)[C@@H](NC(=O)[C@H](CC(C)C)C[C@H](O)CS)C(C)(C)C`
## Output 84.8/50mpk %

## Input Please state recorded in vivo % gelatinase inhibition (tested on gelatinase (Homo sapiens)) of `CCCCCCC[C@H](CC(=O)CS)C(=O)N[C@H](C(=O)NC)C(C)(C)C`
## Output 0.73/50mpk* %

## Input Please state recorded in vivo % gelatinase inhibition (tested on gelatinase (Homo sapiens)) of `CNC(=O)[C@@H](NC(=O)[C@H](CC(C)C)C[C@@H](O)CSC(c1ccccc1)(c1ccccc1)c1ccccc1)C(C)(C)C`
## Output 0.44/50mpk %

---

Target: human recombinant stromelysin (Homo sapiens, UniProt P08254)
Construct: human recombinant stromelysin (truncated, Affymax)
Sequence (P08254 100-272 limits assumed): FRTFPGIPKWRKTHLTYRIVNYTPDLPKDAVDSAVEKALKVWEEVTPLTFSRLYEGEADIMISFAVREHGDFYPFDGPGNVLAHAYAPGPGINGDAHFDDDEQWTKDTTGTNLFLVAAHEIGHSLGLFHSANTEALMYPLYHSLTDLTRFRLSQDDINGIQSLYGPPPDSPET
Test: Stromelysin inhibition in vitro (thiopeptide substrate, DTNB)
experimental.endpoint: IC50 (nM)
Just the number please, in nM, no unit attached.

## Input Please state recorded IC50 (tested on human recombinant stromelysin (Homo sapiens, UniProt P08254)) of `CCCCCCC[C@H](CC(=O)CS)C(=O)N[C@H](C(=O)NC)C(C)(C)C`
## Output 28

---

Target: human recombinant fibroblast collagenase (Homo sapiens, UniProt P03956)
Construct: human recombinant fibroblast collagenase (truncated, mw 18,828, WAR, Radnor)
Sequence (P03956 100-269 limits assumed): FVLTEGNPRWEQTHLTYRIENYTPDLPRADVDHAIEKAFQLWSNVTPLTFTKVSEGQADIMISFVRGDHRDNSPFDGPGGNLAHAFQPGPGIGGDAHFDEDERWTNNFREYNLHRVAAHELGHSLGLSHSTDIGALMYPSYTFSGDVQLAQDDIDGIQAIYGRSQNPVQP
Assay: Collagenase inhibition in vitro (fluorogenic peptide substrate)
experimental.endpoint: IC50 (nM)
Just the number please, in nM, no unit attached.

- compound: "CCCCCCC[C@H](C[C@H](O)CS)C(=O)N[C@H](C(=O)NC)C(C)(C)C [Example 38]"
  experimental.endpoint: "IC50"
  test.value: 30
- compound: "CCCCCCC[C@H](CC(=O)CS)C(=O)N[C@H](C(=O)NC)C(C)(C)C [Example 43]"
  experimental.endpoint: "IC50"
  test.value: 30
- compound: "CNC(=O)[C@@H](NC(=O)[C@H](CC(C)C)C[C@@H](O)CS)C(C)(C)C [Example 39]"
  experimental.endpoint: "IC50"
  test.value: 228

## Input Look at this compound and give its reported IC50. CNC(=O)[C@@H](NC(=O)[C@H](CC(C)C)C[C@H](O)CS)C(C)(C)C [Example 40]
## Output 41

## Input Look at this compound and give its reported IC50. CNC(=O)[C@@H](NC(=O)[C@@H](CC(=O)CS)CC(C)C)C(C)(C)C [Example 44]
## Output 38
